target: Xanthine oxidase (from bovine milk) (Bos taurus, UniProt P80457); construct: Xanthine oxidase (from bovine milk); purchased Sigma-Aldrich; host or cells: bovine milk (natural source); assay: XO assay with 6-MP substrate (6-thiouric acid formation, HPLC); assay type: biochemical; conditions: 5 μM 6-MP, 40 min incubation, 6-TU formation; read-out: 6-MP Oxidation IC50
Sequence (P80457 whole entry): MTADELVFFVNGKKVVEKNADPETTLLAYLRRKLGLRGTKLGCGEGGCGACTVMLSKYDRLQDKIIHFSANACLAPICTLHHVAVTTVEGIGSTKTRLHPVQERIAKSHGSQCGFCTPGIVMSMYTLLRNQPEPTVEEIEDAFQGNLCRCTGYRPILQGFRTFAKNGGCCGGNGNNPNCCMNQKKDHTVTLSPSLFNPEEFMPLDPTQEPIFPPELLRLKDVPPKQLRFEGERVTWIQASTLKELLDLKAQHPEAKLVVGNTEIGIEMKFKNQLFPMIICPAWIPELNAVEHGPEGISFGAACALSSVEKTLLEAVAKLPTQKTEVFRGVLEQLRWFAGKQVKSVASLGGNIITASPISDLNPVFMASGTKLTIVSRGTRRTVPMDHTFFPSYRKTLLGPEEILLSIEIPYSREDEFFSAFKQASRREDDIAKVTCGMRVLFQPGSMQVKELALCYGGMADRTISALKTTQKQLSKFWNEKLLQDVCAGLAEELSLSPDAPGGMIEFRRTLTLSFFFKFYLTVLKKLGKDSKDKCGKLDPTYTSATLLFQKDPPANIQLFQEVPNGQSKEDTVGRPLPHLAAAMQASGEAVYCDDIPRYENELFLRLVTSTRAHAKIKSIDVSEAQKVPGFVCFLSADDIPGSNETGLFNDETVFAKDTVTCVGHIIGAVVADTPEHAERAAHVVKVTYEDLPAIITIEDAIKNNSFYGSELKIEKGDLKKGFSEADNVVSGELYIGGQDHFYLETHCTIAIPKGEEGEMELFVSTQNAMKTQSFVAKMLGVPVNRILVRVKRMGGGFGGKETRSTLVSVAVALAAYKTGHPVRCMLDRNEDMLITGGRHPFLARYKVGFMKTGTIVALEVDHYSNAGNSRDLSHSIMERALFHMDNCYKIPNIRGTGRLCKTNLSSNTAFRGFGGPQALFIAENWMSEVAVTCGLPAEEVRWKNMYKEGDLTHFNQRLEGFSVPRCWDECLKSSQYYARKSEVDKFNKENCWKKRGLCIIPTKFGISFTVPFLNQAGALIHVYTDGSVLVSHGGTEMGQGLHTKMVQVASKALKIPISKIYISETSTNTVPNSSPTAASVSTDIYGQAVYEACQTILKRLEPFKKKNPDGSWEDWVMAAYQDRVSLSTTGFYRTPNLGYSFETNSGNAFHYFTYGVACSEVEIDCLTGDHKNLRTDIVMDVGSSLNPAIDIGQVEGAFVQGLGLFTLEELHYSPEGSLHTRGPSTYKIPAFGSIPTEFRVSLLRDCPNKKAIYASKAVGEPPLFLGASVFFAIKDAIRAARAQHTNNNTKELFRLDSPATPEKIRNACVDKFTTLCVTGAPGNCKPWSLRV
readoutName: IC50 (µM)

molecule: O=c1[nH]c(=O)c2c[nH]nc2[nH]1 [Oxipurinol, oxipurinol, reference compound]
IC50 (µM): 10

a = Oc1cccc(O)c1O
b = O=c1c(O)c(-c2ccc(O)c(OS(=O)(=O)O)c2)oc2cc(O)cc(O)c12 [Q3′S, Quercetin-3′-sulfate]
c = COc1ccc(-c2oc3cc(O)cc(O)c3c(=O)c2O)cc1O
Hey, quick one: sort these by IC50, low to high? Answer by listing the labels in the requested order.
c, b, a
